Protocol details: in vivo
Design: species or system Hunde (Beagle)
Stated conditions: dog, po, 5 mg/kg
A collection of compounds and their measured MRT
Quick note: give the figure in h, leave out the unit.

CCN1CCN(c2cc3c(cc2F)c(=O)c(C(=O)O)cn3C2CC2)CC1 [Enrofloxacin] ... 7.3

Entry N#Cc1c(N2C[C@@H]3CCCN[C@@H]3C2)c(F)cc2c(=O)c(C(=O)O)cn(C3CC3)c12 [Beispiel 1] ; MRT = 14.7
